molecular target: human GPR119 receptor (Homo sapiens, UniProt Q8TDV5); construct: expressed in transfected cells; assay: Human GPR119 Activity Assay (cAMP, HTRF); type: cell-based; details: stimulation of cAMP in HEK293 cells stably expressing human GPR119, 20 min at room temperature, HTRF; read-out: EC50 (μM), Agonist potency at the human GPR119
Sequence (Q8TDV5 whole entry): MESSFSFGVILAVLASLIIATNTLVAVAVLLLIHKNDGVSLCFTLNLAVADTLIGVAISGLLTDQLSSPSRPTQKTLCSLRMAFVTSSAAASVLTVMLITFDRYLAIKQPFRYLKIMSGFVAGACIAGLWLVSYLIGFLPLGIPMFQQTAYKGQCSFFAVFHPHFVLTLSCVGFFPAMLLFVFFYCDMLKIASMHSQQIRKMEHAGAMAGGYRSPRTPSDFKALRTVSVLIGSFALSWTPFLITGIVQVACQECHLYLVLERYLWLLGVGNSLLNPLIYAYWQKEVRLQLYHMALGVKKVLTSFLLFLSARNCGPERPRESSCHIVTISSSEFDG

structure.string: CN(Cc1ccc(-c2ccc(S(C)(=O)=O)cc2)cn1)C1CCN(C(=O)OC(C)(C)C)CC1
EC50 [µM]: 0.139
//
structure.string: CS(=O)(=O)c1ccc(-c2ccc(OCC3CCN(C(=O)OCc4ccccc4)CC3)nc2)cc1
EC50 [µM]: 0.11
